Ref: patent US20090023718A1

Molecular target: histone deacetylase, subtype 1 (HDAC1) (Homo sapiens)
Construct: Flag; made in house
Sequence (Q13547 whole entry): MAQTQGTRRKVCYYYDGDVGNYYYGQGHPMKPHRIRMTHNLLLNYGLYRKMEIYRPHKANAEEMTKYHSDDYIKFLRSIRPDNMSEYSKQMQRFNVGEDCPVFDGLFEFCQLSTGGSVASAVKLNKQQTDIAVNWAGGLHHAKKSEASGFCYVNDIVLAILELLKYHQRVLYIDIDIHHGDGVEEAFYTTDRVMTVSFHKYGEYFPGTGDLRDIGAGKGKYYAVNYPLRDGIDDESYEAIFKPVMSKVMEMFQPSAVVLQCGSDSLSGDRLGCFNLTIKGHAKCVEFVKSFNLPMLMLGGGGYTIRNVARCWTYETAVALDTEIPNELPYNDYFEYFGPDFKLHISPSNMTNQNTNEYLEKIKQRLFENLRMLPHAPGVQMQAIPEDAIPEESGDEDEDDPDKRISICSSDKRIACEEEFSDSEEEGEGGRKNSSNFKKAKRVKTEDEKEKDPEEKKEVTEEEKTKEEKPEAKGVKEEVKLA
Experiment: HDAC1-Flag assay (in vitro fluorescent deacetylation assay)
Assay type: biochemical
Conditions: Table 1, compounds of formula II; epitope-tagged human HDAC1 complex, substrate at Km; mean ± spread (N); read-out: HDAC Inhibition (IC50) nm
reported_property: IC50 (nM)

- compound: "O=C(CCCCCC(=O)N(CC(=O)NCCc1ccccc1)CC(=O)NCCc1ccccc1)NO [Compound 12]"
  test_system: "histone deacetylase, subtype 1 (HDAC1) (Homo sapiens)"
  value: 58
- compound: "O=C(CCCCCC(=O)N(CC(=O)Nc1ccccc1)CC(=O)Nc1cccc2cccnc12)NO [Compound 7]"
  test_system: "histone deacetylase, subtype 1 (HDAC1) (Homo sapiens)"
  value: 25

1 = O=C(CCCCCC(=O)N(CC(=O)Nc1ccc(F)cc1)CC(=O)Nc1ccc(F)cc1)NO [Compound 4]
2 = O=C(CCCCCC(=O)N(CC(=O)Nc1cccc(OCc2ccccc2)c1)CC(=O)Nc1cccc(OCc2ccccc2)c1)NO [Compound 18]
Q) Out of 1 and 2 , name the one with the higher IC50. // return label of chosen record
A) 2
(2: 159 nM, 1: 16 nM)
